Tested on: glycogen synthase kinase-3 (GSK3A per assay name; protocol says GSK3B)
Experiment: compounds binding glycogen synthase kinase-3 – biochemical, small-molecule microarray, 635 nm fluorescence, GSK3A, primary screen (AID 1103); further: the record names both GSK3A and GSK3B
Details: fluorescence 635 nm, higher = more signal
VALUE_KIND: composite z-score
Respond numerically, and do not add a unit to the figure.

Recorded composite z-score, per entry:
- CN(C)C(=O)[C@]1(Cc2ccccc2N=[N+]=[N-])N=C(c2ccc(OCCCO)cc2)O[C@@H]1c1ccccc1CN=[N+]=[N-]: 1.32
- O=C1N(Cc2ccccc2)c2ccccc2[C@H]2OC(c3ccc(OCCCO)cc3)=N[C@@]12CCS(=O)(=O)c1ccccc1: 1.31

Request the reported composite z-score associated with COc1ccccc1CN1C(=O)c2ccccc2[C@@]2(Cc3ccccc3N(C3CC3)C2=O)[C@@H]1c1ccc(CO)cc1
-0.928

Request the reported composite z-score associated with NC(=O)NCC#Cc1ccc2c(c1)[C@]1(C(=O)N2)[C@H](c2ccc(O)cc2)N2[C@H](c3ccccc3)[C@H](c3ccccc3)OC(=O)[C@H]2[C@@H]1C(N)=O
-1.08

Request the reported composite z-score associated with COc1ccccc1CN1C(=O)c2ccccc2[C@@H](C(=O)NCC(C)C)[C@@H]1c1ccc(CO)cc1
-0.0674

Request the reported composite z-score associated with COCCCNC(=O)[C@@]1(Cc2ccccc2CN=[N+]=[N-])N=C(c2ccc(OCCCO)cc2)O[C@H]1c1ccccc1N=[N+]=[N-]
1.22

Request the reported composite z-score associated with O=C1N(CCS(=O)(=O)c2ccccc2)c2ccccc2[C@H]2OC(c3ccc(OCCCO)cc3)=N[C@@]12CCS(=O)(=O)c1ccccc1
1.31

Hey, just so you know, these numbers are from PubChem BioAssay.
